B1: library; a variant is named by its letters at N, in order (parent)
chain: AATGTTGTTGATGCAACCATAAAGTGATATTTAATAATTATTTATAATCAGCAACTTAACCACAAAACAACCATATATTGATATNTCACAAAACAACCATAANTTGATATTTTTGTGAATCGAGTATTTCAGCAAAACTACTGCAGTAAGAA

# Variants of: B1
# Test Details: relative integration efficiency (T-LR orientation) vs wild-type transposon end (log2 (normalized fold change)); transposon end mutated: left end; higher = more efficient transposition
# Condition Label: with VchCAST RNA-guided transposition machinery (E. coli BL21(DE3) host, lacZ target)
relative integration efficiency (log2) vs -0.2: at or above is 1, below is 0.

[[record]]
mutation_annotation = "CG A102T"
qualitative_label = 1

[[record]]
mutation_annotation = "TA A22T G24T T31C A33C T76A T78A T84A C87A A96C T112G T113C"
qualitative_label = 1

[[record]]
mutation_annotation = "CG A66T A67T C68G A69T"
qualitative_label = 0

[[record]]
mutation_annotation = "CG T38A"
qualitative_label = 1

[[record]]
mutation_annotation = "TA T76A T78A T84A C87A T104G T113A"
qualitative_label = 1


Confirm if relative integration efficiency (log2) reported for the variant CG G80T A81C T82G A83C is -0.2 or above. 0

Confirm if relative integration efficiency (log2) reported for the variant CG A69T A70T is -0.2 or above. 0

Confirm if relative integration efficiency (log2) reported for the variant CG A50G is -0.2 or above. 0

Confirm if relative integration efficiency (log2) reported for the variant CG C52A A53C is -0.2 or above. 1

Confirm if relative integration efficiency (log2) reported for the variant TG A23G G24T A33T T76A T78G C87A is -0.2 or above. 1
